Molecular target: T1, GAL4 activation domain fusion (ACT) to HAB1 (UniProt Q9CAJ0 23-511, limits assumed)
T1 construct: pACT-HAB1 fusion in yeast reporter strains; also called pACT-HAB1
T1 sequence (looked up): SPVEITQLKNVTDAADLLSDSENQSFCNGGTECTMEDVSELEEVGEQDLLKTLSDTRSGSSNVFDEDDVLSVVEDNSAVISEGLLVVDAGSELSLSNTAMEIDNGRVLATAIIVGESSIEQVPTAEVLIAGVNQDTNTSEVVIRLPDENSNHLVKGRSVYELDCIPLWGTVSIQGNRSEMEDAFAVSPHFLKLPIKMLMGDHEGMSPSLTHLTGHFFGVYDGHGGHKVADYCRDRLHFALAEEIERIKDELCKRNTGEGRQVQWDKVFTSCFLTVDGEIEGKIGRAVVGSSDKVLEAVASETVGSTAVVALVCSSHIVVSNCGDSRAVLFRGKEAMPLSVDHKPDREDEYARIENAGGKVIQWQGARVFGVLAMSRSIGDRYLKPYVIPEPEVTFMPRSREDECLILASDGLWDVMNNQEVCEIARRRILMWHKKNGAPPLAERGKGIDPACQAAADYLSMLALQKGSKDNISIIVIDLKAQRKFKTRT
Experiment: yeast two-hybrid, X-gal; lowest mandipropamid concentration giving signal
property-name: Threshold (µM)
Just the number please, in µM, no unit attached.

Reference set, count: 2
binder: PYR1^K59R,F108A,S122G (receptor, not shown: small tags and cut ends, pBD-PYR1 fusion in yeast; also called pBD-PYR1^K59R,F108A,S122G) MPSELTPEERSELKNSIAEFHTYQLDPGSCSSLHAQRIHAPPELVWSIVRRFDKPQTYRHFIKSCSVEQNFEMRVGCTRDVIVISGLPANTSTERLDILDDERRVTGASIIGGEHRLTNYKGVTTVHRFEKENRIWTVVLESYVVDMPEGNSEDDTRMFADTVVKLNLQKLATVAEAMARNSGDGSGSQVT
unit-abbreviation: µM
Threshold: 1

binder: PYR1^K59R,F108A,S122G,V83L (receptor, pBD-PYR1 fusion in yeast) MPSELTPEERSELKNSIAEFHTYQLDPGSCSSLHAQRIHAPPELVWSIVRRFDKPQTYRHFIKSCSVEQNFEMRVGCTRDVILISGLPANTSTERLDILDDERRVTGASIIGGEHRLTNYKGVTTVHRFEKENRIWTVVLESYVVDMPEGNSEDDTRMFADTVVKLNLQKLATVAEAMARNSGDGSGSQVT
unit-abbreviation: µM
Threshold: 0.05

Okay, now this binder:
Request: Which measured Threshold value corresponds to PYR1^K59R,F108V (receptor, not shown: small tags and cut ends, pBD-PYR1 fusion in yeast) MPSELTPEERSELKNSIAEFHTYQLDPGSCSSLHAQRIHAPPELVWSIVRRFDKPQTYRHFIKSCSVEQNFEMRVGCTRDVIVISGLPANTSTERLDILDDERRVTGVSIIGGEHRLTNYKSVTTVHRFEKENRIWTVVLESYVVDMPEGNSEDDTRMFADTVVKLNLQKLATVAEAMARNSGDGSGSQVT ?
Result: 100
